- study_target: CDK2/Cyclin E complex (UniProt P24941 1-298; P24864 1-410); further: test concentration or dose not given here
- measurement_protocol: cell-based or functional assay
Ends that are not written are not given here.
quantity_name: % Inhibition, cyclin E/CDK2 kinase (%)

INSERT INTO measurements (binder, quantity_name, observed) VALUES
  ('FYHSKRR-NH2 [FYHSKRR-NH2]', '% Inhibition, cyclin E/CDK2 kinase', 45),
  ('DFYHSK-NH2 [DFYHSK-NH2]', '% Inhibition, cyclin E/CDK2 kinase', 45),
  ('SMTDFYHSKRRL-NH2 [SMTDFYHSKRRL-NH2]', '% Inhibition, cyclin E/CDK2 kinase', 40),
  ('YHSKRRL-NH2 [YHSKRRL-NH2]', '% Inhibition, cyclin E/CDK2 kinase', 30);
